test system: PPARg DBDmut IVT, anti-PPARg (DBD mutation: PPARg1 K132A/R137A, NR concentration 270 nM); assay: PBM binding z-score (relative to random genomic background probes); higher = stronger binding; sequences stand for … in GC…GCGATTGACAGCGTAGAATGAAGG
Items are presented alongside their recorded PBM binding z-score.
Result type: PBM binding z-score

{"columns": ["Construct sequence", "Result type", "Numeric value"],
 "data": [
  ["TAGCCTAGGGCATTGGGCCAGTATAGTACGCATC", "PBM binding z-score", -0.898],
  ["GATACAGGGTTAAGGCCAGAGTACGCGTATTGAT", "PBM binding z-score", -0.564],
  ["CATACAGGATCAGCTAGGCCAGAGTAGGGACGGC", "PBM binding z-score", 0.351],
  ["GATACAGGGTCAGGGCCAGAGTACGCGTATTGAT", "PBM binding z-score", -0.619],
  ["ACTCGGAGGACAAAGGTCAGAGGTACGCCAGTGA", "PBM binding z-score", 0.441],
  ["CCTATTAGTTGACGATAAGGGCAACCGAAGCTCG", "PBM binding z-score", 0.471]
]}
